# test-target: recombinant USP1 protein (Homo sapiens, UniProt O94782, DEL125-138/DEL229-408/DEL608-737)
# Sequence (O94782 with tags, fused parts or gaps DEL125-138/DEL229-408/DEL608-737): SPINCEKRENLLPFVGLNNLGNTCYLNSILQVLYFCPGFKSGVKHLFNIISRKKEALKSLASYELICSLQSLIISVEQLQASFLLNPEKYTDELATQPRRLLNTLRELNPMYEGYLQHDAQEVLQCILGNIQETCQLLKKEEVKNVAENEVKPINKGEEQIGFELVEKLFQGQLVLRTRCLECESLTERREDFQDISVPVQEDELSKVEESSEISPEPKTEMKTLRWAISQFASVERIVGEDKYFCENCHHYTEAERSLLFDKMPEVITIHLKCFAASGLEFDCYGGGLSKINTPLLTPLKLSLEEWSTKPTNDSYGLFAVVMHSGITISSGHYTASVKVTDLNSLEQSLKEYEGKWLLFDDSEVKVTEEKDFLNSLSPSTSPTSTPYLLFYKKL
# assay-info: Binding affinity to recombinant USP1 protein by differential scanning fluorimetry
# recorded-conditions: compound 100 µM; 0.03 mg/mL USP1 (Δ1-66, Δ125-138, Δ229-408, Δ608-737); Tm with compound minus Tm with DMSO; read-out: ΔTm (°C)
The following molecules are shown together with reported ΔTm at 100 µM values.

Past entries and their recorded results:
[[record]]
molecule = "COc1ncnc(C2CC2)c1-c1ncc2cc(C(=O)N3CCCC3)n(Cc3ccc(-c4nc(C(F)(F)F)cn4C(C)C)cc3)c2n1 [Example 51]"
test_target = "recombinant USP1 protein (Homo sapiens, UniProt O94782, DEL125-138/DEL229-408/DEL608-737)"
endpoint_result = "> 5 °C"

[[record]]
molecule = "CNCCNC(=O)c1cc2cnc(-c3c(OC)ncnc3C3CC3)nc2n1Cc1ccc(-c2nc(C(F)(F)F)cn2C(C)C)cc1 [Example 143]"
test_target = "recombinant USP1 protein (Homo sapiens, UniProt O94782, DEL125-138/DEL229-408/DEL608-737)"
endpoint_result = "> 5 °C"


Reported ΔTm at 100 µM for CNC(=O)c1cc2cnc(-c3c(C4CC4)nc[nH]c3=O)nc2n1Cc1ccc(-c2nc(C(F)(F)F)cn2C(C)C)cc1 [Example 59] was < 5 °C

Reported ΔTm at 100 µM for COc1ncnc(C2CC2)c1-c1ncc2cc(C(=O)NCCS(C)(=O)=O)n(Cc3ccc(-c4nc(C(F)(F)F)cn4C(C)C)cc3)c2n1 [Example 8] was > 5 °C

Reported ΔTm at 100 µM for COc1ncnc(C2CC2)c1-c1ncc2cc(C(=O)NCC3CCN(C)CC3)n(Cc3ccc(-c4nc(C(F)(F)F)cn4C(C)C)cc3)c2n1 [Example 87] was > 5 °C

Reported ΔTm at 100 µM for COc1ncnc(C2CC2)c1-c1ncc2cc(C(=O)NCC#N)n(Cc3ccc(-c4nc(C(F)(F)F)cn4C(C)C)cc3)c2n1 [Example 22] was > 5 °C

Reported ΔTm at 100 µM for COc1ncnc(C2CC2)c1-c1ncc2cc(C(=O)N3CC[C@H](O)C3)n(Cc3ccc(-c4nc(C(F)(F)F)cn4C(C)C)cc3)c2n1 [Example 117] was > 5 °C

Reported ΔTm at 100 µM for CNC(=O)c1cc2cnc(-c3c(OC)ncnc3C3CC3)nc2n1Cc1ccc(-c2nc(C(F)(F)F)c3ccccn23)cc1 [Example 208] was > 5 °C

Reported ΔTm at 100 µM for COc1ncnc(C2CC2)c1-c1ncc2cc(C(=O)N3CCCC(O)C3)n(Cc3ccc(-c4nc(C(F)(F)F)cn4C(C)C)cc3)c2n1 (stereo not shown) [Example 67] was > 5 °C

Reported ΔTm at 100 µM for COc1ncnc(C2CC2)c1-c1ncc2cc(C(=O)N3CC[C@H](OC)C3)n(Cc3ccc(-c4nc(C(F)(F)F)cn4C(C)C)cc3)c2n1 [Example 128] was > 5 °C

Reported ΔTm at 100 µM for CCC1(NC(=O)c2cc3cnc(-c4c(OC)ncnc4C4CC4)nc3n2Cc2ccc(-c3nc(C(F)(F)F)cn3C(C)C)cc2)COC1 [Example 132] was > 5 °C

Reported ΔTm at 100 µM for CNC(=O)c1cc2cnc(-c3c(OC)ncnc3C3CC3)nc2n1Cc1ccc(-c2nc(C(F)(F)F)cn2[C@H]2CCN(C)C[C@@H]2F)cc1 [Example 189] was > 5 °C

Reported ΔTm at 100 µM for CNC(=O)c1cc2cnc(-c3c(OC)ncnc3C3CC3)nc2n1CC12CCC(c3nc(C(F)(F)F)cn3C(C)C)(CC1)CO2 [Example 226] was < 5 °C
